Tested on: Serratia
procedure details: Antibiotic activity was determined against Serratia species (2)
Format: functional
property measured: MIC (µg/mL)

# example entries with known answers
[
  {
    "compound": "C[C@@H](O)[C@H]1C(=O)N2C(C(=O)[O-])=C(c3ccccc3)[C@H](C)[C@H]12.[K+]",
    "recorded measurement": 1
  },
  {
    "compound": "C[C@@H](O)[C@H]1C(=O)N2C(C(=O)O)=C(c3ccc(CN)nc3)[C@H](C)[C@H]12",
    "recorded measurement": 3.2
  },
  {
    "compound": "C[C@@H](O)[C@H]1C(=O)N2C(C(=O)[O-])=C(c3ccc(CO)cc3)C[C@H]12.[K+]",
    "recorded measurement": 7
  }
]

[I] CC(O)[C@H]1C(=O)N2C(C(=O)O)=C(c3ccc(CN)cc3)C[C@H]12 (some centres not stated)
[II] C[C@@H](O)[C@H]1C(=O)N2C(C(=O)[O-])=C(c3ccccc3)C[C@H]12.[K+]
[III] C[C@@H](O)[C@H]1C(=O)N2C(C(=O)[O-])=C(c3ccc(CO)cc3)[C@H](C)[C@H]12.[K+]
[IV] C[C@@H]1C(c2cccnc2)=C(C(=O)[O-])N2C(=O)[C@H]([C@@H](C)O)[C@@H]12.[K+]
Order field: MIC | Direction: descending (largest first) Answer by listing the labels in the order asked for.
IV, II, I, III

====

Tested on: Klebsiella sp.
procedure details: Antibiotic activity was determined against Klebsiella species (5)
Type: functional
property measured: MIC (mg/L)

[
  {
    "molecule": "C[C@@H](O)[C@H]1C(=O)N2C(C(=O)O)=C(SCCN)C[C@H]12 [THIENAMYCIN]",
    "target or system": "Klebsiella sp.",
    "recorded measurement": 1.3
  }
]

[a] C[C@@H](O)[C@H]1C(=O)N2C(C(=O)[O-])=C(c3ccc(CO)cc3)C[C@H]12.[K+]
[b] C[C@@H](O)[C@H]1C(=O)N2C(C(=O)[O-])=C(c3ccccc3)C[C@H]12.[K+]
[c] C[C@@H](O)[C@H]1C(=O)N2C(C(=O)[O-])=C(c3ccccc3)[C@H](C)[C@H]12.[K+]
[d] O=C(O)C1=C(c2cccnc2)CC2CC(=O)N12 (stereo not drawn)
[e] C[C@@H](O)[C@H]1C(=O)N2C(C(=O)[O-])=C(c3ccc(O)cc3)C[C@H]12.[K+]
Hi! Can you put these in order of MIC, lowest number first? Answer by listing the labels in the order asked for.
d, c, e, b, a
(d: 0.02 mg/L, c: 0.3 mg/L, e: 0.7 mg/L, b: 1.4 mg/L, a: 2.3 mg/L)

====

target or system: Dipeptidase 1 (Homo sapiens)
procedure details: Susceptibility to mammalian dehydropeptidase DHP-1 relative to thienamycin
property measured: Relative susceptibility

# example entries with known answers
[
  {
    "compound": "C[C@H](O)[C@H]1C(=O)N2C(C(=O)O)=C(c3ccc(CN)cc3)C[C@H]12",
    "target or system": "Dipeptidase 1 (Homo sapiens)",
    "recorded measurement": 0.02
  },
  {
    "compound": "C[C@@H](O)[C@H]1C(=O)N2C(C(=O)[O-])=C(c3ccccc3)[C@H](C)[C@H]12.[K+]",
    "target or system": "Dipeptidase 1 (Homo sapiens)",
    "recorded measurement": 0.25
  },
  {
    "compound": "C[C@@H](O)[C@H]1C(=O)N2C(C(=O)[O-])=C(c3ccc(O)cc3)C[C@H]12.[K+]",
    "target or system": "Dipeptidase 1 (Homo sapiens)",
    "recorded measurement": 0.2
  },
  {
    "compound": "C[C@@H](O)[C@H]1C(=O)N2C(C(=O)[O-])=C(c3cccnc3)C[C@H]12.[K+]",
    "target or system": "Dipeptidase 1 (Homo sapiens)",
    "recorded measurement": 0.4
  }
]

[I] C[C@@H](O)[C@H]1C(=O)N2C(C(=O)O)=C(SCCN)C[C@H]12 [THIENAMYCIN]
[II] C[C@@H](O)[C@H]1C(=O)N2C(C(=O)O)=C(c3ccc(CN)nc3)[C@H](C)[C@H]12
[III] O=C(O)C1=C(c2cccnc2)CC2CC(=O)N12 (stereo not drawn)
[IV] C[C@@H](O)[C@H]1C(=O)N2C(C(=O)O)=C(c3ccc(CN)nc3)C[C@H]12
Order field: Relative susceptibility | Direction: descending (largest first) Answer by listing the labels in the order asked for.
I, III, II, IV
(I: 1, III: 0.3, II: 0.16, IV: 0.1)
